Test system: rabbit serum obtained by immunizing a rabbit with the SARS-CoV strain Frankfurt 1
Format: binding
Design: unit not given here
Label t when Rabbit serum looped peptides is strictly below 0.3; at or above that, label f.

Threshold test, Rabbit serum looped peptides < 0.3: KLVFLWLLWPVTLAC t

// repeat for VRYNTRGNTYSTAWL and report f

// repeat for EQWNLVIGFLFLAWI and report f

// repeat for IGNYKLNTDHAGSND and report t

// repeat for VTGGIAIAMACIVGL and report f

// repeat for RTLSYYKLGASQRVG and report f

// repeat for GIAIAMACIVGLMWL and report t

// repeat for EEVQQELYSPLFLIV and report f

// repeat for ESELVIGAVIIRGHL and report t

// repeat for YNRYRIGNYKLNTDH and report f

// repeat for LPKEITVATSRTLSY and report t

// repeat for LLKEPCPSGTYEGNS and report t

// repeat for TVLLKEPCPSGTYEG and report t

// repeat for IILFLTLIVFTSCEL and report f

// repeat for LACFVLAAVYRINWV and report t

// repeat for WVTGGIAIAMACIVG and report t

// repeat for HLRMAGHPLGRCDIK and report f

// repeat for RGTTVLLKEPCPSGT and report f

// repeat for SQRVGTDSGFAAYNR and report t

// repeat for KKNYSELDDEEPMEL and report t

// repeat for ASFRLFARTRSMWSF and report t

// repeat for KLGASQRVGTDSGFA and report t

// repeat for NPETNILLNVPLRGT and report t

// repeat for NTYSTAWLCALGKVL and report f

// repeat for MRTFRIAIWNLDVII and report f

// repeat for QLLEQWNLVIGFLFL and report t

// repeat for LNVPLRGTIVTRPLM and report f

// repeat for GTTVLLKEPCPSGTY and report f

// repeat for ALGKVLPFHRWHTMV and report t

// repeat for SGTYEGNSPFHPLAD and report f

// repeat for IANACIVGLMWLSYF and report t

// repeat for VIGAVIIRGHLRMAG and report f

// repeat for SPFHPLADNKFALTC and report f

// repeat for PKLFIRQEEVQQELY and report f

// repeat for LFKPLTKKNYSELDD and report f

// repeat for RNRFLYIIKLVFLWL and report f

// repeat for IISSIVRQLFKPLTK and report f

// repeat for LHEGHQTAAFRDVLV and report f

// repeat for RMAGHPLGRCDIKDL and report f

// repeat for SFRLFARTRSMWSFN and report t

// repeat for ILIIIMRTFRIAIWN and report f

// repeat for HTMVQTCTPNVTINC and report t

// repeat for VRGTTVLLKEPCPSG and report f

// repeat for IIKLVFLWLLWPVTL and report t

// repeat for LFLIVAALVFLILCF and report f

// repeat for GFAAYNRYRIGNYKL and report f

// repeat for GAVIIRGHLRMAGHP and report f
